These data points were gathered from patent US20150141381A1.

Please go through the items and note down their MIC.
Tested on: S. aureus RN450
experiment summary: In Vitro Anti-Bacterial Activity Assay (MIC), gram positive
Assay type: cell-based
recorded conditions: Staphylococcus aureus, RN450, 18 h, gram positive bacteria; read-out: Antibiotic Activity Gram + (MIC)

Example entries and their recorded answers appear below.
Input line: So what MIC did CCCCCC(=O)c1ccc(O)c2c1C[C@H]1C[C@H]3[C@H](N(C)C)C(O)=C(C(N)=O)C(=O)[C@@]3(O)C(O)=C1C2=O get with S. aureus RN450?
Output line: < 4 µg/mL

Input line: Request - read-out MIC | tested on S. aureus RN450 | compound CN(C)[C@@H]1C(O)=C(C(N)=O)C(=O)[C@@]2(O)C(O)=C3C(=O)c4c(O)ccc(/C=C/c5ccc(C(F)(F)F)cc5)c4C[C@H]3C[C@@H]12
Output line: < 4 µg/mL

Now for the compound whose MIC we want.
Input line: For S. aureus RN450, provide MIC of CCOC(=O)Nc1cc(N(C)C)c2c(c1O)C(=O)C1=C(O)[C@]3(O)C(=O)C(C(N)=O)=C(O)[C@@H](N(C)C)[C@@H]3C[C@@H]1C2 [drawing 3362] please.
Output line: < 4 µg/mL
